Measured values drawn from patent US20240317858A1 for this set.

Recorded NCB (Normalized Cell Binding) by entry
target: T1, Human CD3 on CD3+ Jurkat cells (human, UniProt P07766 23-207); assay: flow cytometry, 100 nM IgG1, pH 7.4
T1 construct: whole, on cells; Target is the endogenous CD3 complex on cells; also called Human CD3+ Jurkat cells
T1 sequence (P07766 23-207): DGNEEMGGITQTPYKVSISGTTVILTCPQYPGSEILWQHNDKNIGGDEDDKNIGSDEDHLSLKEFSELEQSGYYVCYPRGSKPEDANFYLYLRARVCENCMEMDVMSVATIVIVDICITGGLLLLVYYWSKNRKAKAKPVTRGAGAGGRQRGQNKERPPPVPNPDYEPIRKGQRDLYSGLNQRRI
Lab note: write the figure by itself, no unit.

Observe how each entry below is paired with its result.
>  <BINDER>
Antibody No. V002 (ADI-67445) IgG1 (antibody, V domains shown, IgG1, CHO-produced) VH: QVQLVQSGAEVKKPGASVKVSCKASGFNIKDYYMHWVRQAPGQRLEWMGWIDLENAETIYDAKFQDRVTITRDTSASTAYMELSSLRSEDTAVYYCARDAYGRYFYDEWGQGTLVTVSS VL: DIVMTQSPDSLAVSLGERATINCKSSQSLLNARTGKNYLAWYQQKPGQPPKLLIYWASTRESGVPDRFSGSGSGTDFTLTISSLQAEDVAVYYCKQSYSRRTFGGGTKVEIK

>  <RESULT VALUE>
320

$$$$
>  <BINDER>
Antibody No. A004 (ADI-26920) IgG1 (antibody, V domains shown, IgG1, CHO-produced) VH: QVQLVQSGAEVKKPGASVKVSCKASGFNIKDYYMHWVRQAPGQRLEWMGWIDLENANTIYDAKFQGRVTITRDTSASTAYMELSSLRSEDTAVYYCGRDAYGRYFYDVWGQGTLVTVSS VL: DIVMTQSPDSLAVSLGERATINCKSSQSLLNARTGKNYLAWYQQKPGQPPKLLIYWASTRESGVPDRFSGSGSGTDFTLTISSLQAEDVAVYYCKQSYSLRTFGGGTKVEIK

>  <RESULT VALUE>
240

$$$$
>  <BINDER>
Antibody No. V014 (ADI-76357) IgG1 (antibody, V domains shown, IgG1, CHO-produced) VH: QVQLVQSGAEVKKPGASVKVSCKASGFDIKDYYMHWVRQAPGQRLEWMGWIDLENANTIYDAKFQGRVTITRDTSASTAYMELSSLRSEDTAVYYCARDQYGRYFYDVWGQGTLVTVSS VL: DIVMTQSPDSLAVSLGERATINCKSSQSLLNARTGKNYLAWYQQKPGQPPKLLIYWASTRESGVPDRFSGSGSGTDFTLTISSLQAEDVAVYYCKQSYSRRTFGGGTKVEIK

>  <RESULT VALUE>
349

$$$$

Sure, the documented NCB (Normalized Cell Binding) for Antibody No. A001 (ADI-26906) IgG1 (antibody, V domains shown, IgG1, CHO-produced) VH: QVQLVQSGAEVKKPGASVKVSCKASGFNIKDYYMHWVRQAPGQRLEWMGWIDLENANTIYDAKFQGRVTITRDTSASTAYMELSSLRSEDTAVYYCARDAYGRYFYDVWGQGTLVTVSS VL: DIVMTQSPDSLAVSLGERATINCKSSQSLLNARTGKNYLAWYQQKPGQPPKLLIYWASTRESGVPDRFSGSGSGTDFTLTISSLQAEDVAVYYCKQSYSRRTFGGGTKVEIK is 289

response.value for Antibody No. V010 (ADI-70327) IgG1 (antibody, V domains shown, IgG1, CHO-produced) VH: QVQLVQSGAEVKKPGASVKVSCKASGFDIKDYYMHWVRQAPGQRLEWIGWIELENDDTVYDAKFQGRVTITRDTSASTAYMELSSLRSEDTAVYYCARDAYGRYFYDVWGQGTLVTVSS VL: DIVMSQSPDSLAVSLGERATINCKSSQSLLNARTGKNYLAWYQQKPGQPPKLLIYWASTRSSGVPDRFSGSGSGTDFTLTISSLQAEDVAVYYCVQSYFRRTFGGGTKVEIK (field: NCB (Normalized Cell Binding)) = 298
